Target: Large subunit-rSCFV5 fusion protein
Sequence (chain, as listed by the source): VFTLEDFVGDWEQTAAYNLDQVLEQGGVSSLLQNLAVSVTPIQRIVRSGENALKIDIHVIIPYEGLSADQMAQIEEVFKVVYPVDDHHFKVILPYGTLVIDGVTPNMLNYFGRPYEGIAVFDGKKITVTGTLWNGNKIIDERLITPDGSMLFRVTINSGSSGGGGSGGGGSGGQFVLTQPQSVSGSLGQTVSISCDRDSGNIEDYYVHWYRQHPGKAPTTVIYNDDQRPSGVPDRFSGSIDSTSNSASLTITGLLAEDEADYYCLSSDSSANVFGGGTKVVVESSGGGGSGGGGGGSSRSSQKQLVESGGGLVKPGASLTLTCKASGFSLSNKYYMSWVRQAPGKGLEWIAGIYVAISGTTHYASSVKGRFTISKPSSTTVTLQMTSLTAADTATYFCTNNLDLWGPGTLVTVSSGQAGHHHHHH
Assay: cell-based or functional assay
MEASUREMENT_KIND: Signal-to-noise ratio at 1000 pg/ml

BINDER: VEGYRLFDKKW (peptide, part only; not given: rSCFV18 scFv part, part only) [rSCFV18-small subunit mutant fusion protein RB239]
Signal-to-noise ratio at 1000 pg/ml: 11.5

I. VDGWRLHEKIS (peptide, part only; not given: rSCFV18 scFv part, part only) [rSCFV18-small subunit mutant fusion protein RA141]
II. VSGWRIHEKIS (peptide, part only; not given: rSCFV18 scFv part, part only) [rSCFV18-small subunit mutant fusion protein RA120]
III. VEGYRLFNKEW (peptide, part only; not given: rSCFV18 scFv part, part only) [rSCFV18-small subunit mutant fusion protein RB284]
Query: // ranking: key=Signal-to-noise ratio at 1000 pg/ml, reverse=True In your reply, arrange the labels in the requested order.
Result: II, I, III
